All values here come from patent US20160237162A1.

Reported BT474 6-day growth % Max inhibition values are given for each entry in this list.
target: human HER3 on human cancer cells (human, UniProt P21860 20-1342); assay: cell-based or functional assay
quantity_measured: BT474 6-day growth % Max inhibition (%)

{"columns": ["binder", "quantity_measured", "uom", "observed_result"],
 "data": [
  ["3E1 antibody, human IgG1 (antibody, V domains shown, IgG1, lambda) VH: EVQLLESGGGLVQPGGSLRLSCAASGFTFSYYYMQWVRQAPGKGLEWVSYIGSSGGVTNYADSVKGRFTISRDNSKNTLYLQMNSLRAEDTAVYYCARVGLGDAFDIWGQGTMVTVSS VL: QSVLTQPPSASGTPGQRVTISCRGSSSNIGLNYVSWYQQLPGTAPKLLISRNNQRPSGVPDRFSGSKSGTSASLAISGLRSEDEADYYCAAWDDSPPGEAFGGGTKLTVL", "BT474 6-day growth % Max inhibition", "%", 48.1],
  ["2F10 antibody, human IgG1 (antibody, V domains shown) VH: EVQLLESGGGLVQPGGSLRLSCAASGFTFSYYYMQWVRQAPGKGLEWVSYIGSSGGVTNYADSVKGRFTISRDNSKNTLYLQMNSLRAEDTAVYYCARVGLGDAFDIWGQGTMVTVSS VL: QSVLTQPPSASGTPGQRVTISCSGSSSNIGLNYVSWYQQLPGTAPKLLISRNNQRPSGVPDRFSGSKSGTSASLAISGLRSEDEADYYCAAWDDSPSGEAFGGGTKLTVL", "BT474 6-day growth % Max inhibition", "%", 49],
  ["Clone 16 antibody (CL16), human IgG1 (antibody, V domains shown, also called parental IgG; Clone 16-PA) VH: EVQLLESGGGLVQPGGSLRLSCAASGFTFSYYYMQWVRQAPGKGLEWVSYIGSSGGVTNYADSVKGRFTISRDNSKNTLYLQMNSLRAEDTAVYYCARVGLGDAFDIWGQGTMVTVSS VL: QYELTQPPSASGTPGQRVTMSCSGSSSNIGLNYVSWYQQLPGTAPKLLISRNNQRPSGVPDRFSGSKSGTSASLAISGLRSEDEADYYCAAWDDSLSGEVFGGGTKLTVL", "BT474 6-day growth % Max inhibition", "%", 46],
  ["1A4 antibody, human IgG1 (antibody, V domains shown, IgG1, lambda) VH: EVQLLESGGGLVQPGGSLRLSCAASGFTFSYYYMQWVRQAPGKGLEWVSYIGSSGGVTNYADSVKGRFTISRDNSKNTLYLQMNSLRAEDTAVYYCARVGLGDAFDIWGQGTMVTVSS VL: QSVLTQPPSASGTPGQRVTISCSGSSSNIGLNYVSWYQQLPGTAPKLLISRNNQRPSGVPDRFSGSKSGTSASLAISGLRSEDEADYYCAAWDDSPPGEAFGGGTKLTVL", "BT474 6-day growth % Max inhibition", "%", 54.5]
]}
